test system: Pfeiffer cell line (diffuse large B cell lymphoma); test: Pfeiffer cell proliferation assay (Example B2); assay type: cell-based; settings: Pfeiffer cells, [3H]-thymidine
Property: IC50

stdin: Output IC50 of Cc1csc2nc(C(C)Nc3ncnc4[nH]cnc34)c(-c3cccc(F)c3)c(=O)n12 (stereo not shown)
stdout: < 50 nM

====

system: B cells; assay: B cell proliferation assay (Example B1); assay type: cell-based; conditions: purified human B cells, anti-human IgM, [3H]-thymidine
Property: IC50

stdin: Output IC50 of Cc1csc2nc(C(C)Nc3ncnc4[nH]cnc34)c(-c3cccc(F)c3)c(=O)n12 (stereo not shown) [Example 30]
stdout: < 50 nM

====

target: PI3Kγ (Homo sapiens (Human), UniProt P48736); experiment: PI3K enzyme assay, [γ-33P]ATP filter plate (Example A2), PI3Kγ; type: biochemical; settings: read-out: PI3Kγ^c IC50
Sequence (P48736 whole entry, species assumed): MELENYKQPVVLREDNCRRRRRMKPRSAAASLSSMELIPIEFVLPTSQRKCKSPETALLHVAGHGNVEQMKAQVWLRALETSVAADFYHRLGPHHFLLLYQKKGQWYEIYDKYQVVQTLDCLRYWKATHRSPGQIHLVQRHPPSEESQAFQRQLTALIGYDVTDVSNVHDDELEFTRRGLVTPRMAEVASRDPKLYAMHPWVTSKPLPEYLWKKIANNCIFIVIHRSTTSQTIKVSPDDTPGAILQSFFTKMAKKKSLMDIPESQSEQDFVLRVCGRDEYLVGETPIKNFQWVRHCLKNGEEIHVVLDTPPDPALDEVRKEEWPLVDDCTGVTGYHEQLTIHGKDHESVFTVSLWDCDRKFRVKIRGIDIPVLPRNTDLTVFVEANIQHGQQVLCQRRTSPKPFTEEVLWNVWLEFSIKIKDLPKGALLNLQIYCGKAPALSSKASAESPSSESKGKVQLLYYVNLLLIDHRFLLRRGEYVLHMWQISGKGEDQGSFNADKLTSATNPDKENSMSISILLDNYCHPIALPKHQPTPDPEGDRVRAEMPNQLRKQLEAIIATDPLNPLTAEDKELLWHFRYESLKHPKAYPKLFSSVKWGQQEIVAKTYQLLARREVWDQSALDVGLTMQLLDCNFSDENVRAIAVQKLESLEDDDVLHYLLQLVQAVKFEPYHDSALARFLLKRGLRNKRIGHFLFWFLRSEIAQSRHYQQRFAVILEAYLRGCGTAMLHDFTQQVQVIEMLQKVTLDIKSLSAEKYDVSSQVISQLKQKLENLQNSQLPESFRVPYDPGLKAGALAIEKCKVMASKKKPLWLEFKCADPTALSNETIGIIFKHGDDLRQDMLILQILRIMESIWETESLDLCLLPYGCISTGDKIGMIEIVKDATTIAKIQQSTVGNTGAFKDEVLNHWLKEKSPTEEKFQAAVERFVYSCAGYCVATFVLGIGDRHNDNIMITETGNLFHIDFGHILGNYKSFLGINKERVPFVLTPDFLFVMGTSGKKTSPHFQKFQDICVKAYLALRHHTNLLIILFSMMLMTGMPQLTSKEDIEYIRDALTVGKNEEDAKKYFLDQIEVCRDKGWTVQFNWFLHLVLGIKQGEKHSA
pIC50: −log10 of the molar value.
Property: pIC50

stdin: Output pIC50 of Cc1csc2nc(C(C)Nc3ncnc4[nH]cnc34)c(-c3cc(F)cc(F)c3)c(=O)n12 (single isomer, unassigned) [Example 44]
stdout: < 6.30

This collection of values is drawn from patent US10428087B2.
